Reference for the values: patent US11225505B2

A collection of compounds and their measured Minimum inhibitory concentration
- Tested on: Pseudomonas aeruginosa FADDI-PA01
- Assay type: cell-based
- statedConditions: FADDI-
Where a SMILES comes first, the peptide text is derived from it. Bridges are numbered along the chain shown (N, C = ends). [ ]: non-standard residue; d: D form. The star is where a group is joined. X1 = O=C(c1ncc(Cl)cc1Cl)*; X59 = Cn1c(Br)ccc1C(=O)*; Dab = NCC[C@H](N)C(=O)O; Abu = CC[C@H](N)C(=O)O; Dap = NC[C@H](N)C(=O)O; X71 = O=C(c1sccc1Cl)*
Response body: numeric value in mg/L, unit text excluded.

These recorded examples may help you get a feel for the data.
compound	testReadout	numericValue
CC[C@@H]1NC(=O)[C@@H](CC(C)C)NC(=O)[C@H](CCN)NC(=O)[C@@H](NC(=O)[C@H](CN)NC(=O)[C@@H](NC(=O)[C@H](CCN)NC(=O)c2sccc2Cl)[C@@H](C)O)CCNC(=O)[C@H]([C@@H](C)O)NC(=O)[C@H](CCN)NC(=O)[C@H](CCN)NC1=O [Compound 89] (X71-[Dab]T[Dap][Dab][Dab][dL][Abu][Dab][Dab]T; lactam 4-C)	Minimum inhibitory concentration	0.25
CC[C@@H]1NC(=O)[C@@H](CC(C)C)NC(=O)[C@H](CCN)NC(=O)[C@@H](NC(=O)[C@H](CN)NC(=O)[C@@H](NC(=O)[C@H](CCN)NC(=O)c2ccc(Br)n2C)[C@@H](C)O)CCNC(=O)[C@H]([C@@H](C)O)NC(=O)[C@H](CCN)NC(=O)[C@H](CCN)NC1=O [Compound 93] (X59-[Dab]T[Dap][Dab][Dab][dL][Abu][Dab][Dab]T; lactam 4-C; N-terminus assumed)	Minimum inhibitory concentration	0.5

As a next step, examine the compound that follows.
## Task # lookup: Minimum inhibitory concentration of CC(C)C[C@H]1NC(=O)[C@H](CCN)NC(=O)[C@@H](NC(=O)[C@H](CN)NC(=O)[C@@H](NC(=O)[C@H](CCN)NC(=O)c2ncc(Cl)cc2Cl)[C@@H](C)O)CCNC(=O)[C@H]([C@@H](C)O)NC(=O)[C@H](CCN)NC(=O)[C@H](CCN)NC(=O)[C@H](C(C)C)NC1=O [Compound 13] (X1-[Dab]T[Dap][Dab][Dab][dL]V[Dab][Dab]T; lactam 4-C)
## Result 0.5
